All values here come from patent US20260250371A1.

# SA (surface activity) listing for each entry below
# target.of.assay: T1, recombinant human FGF23 (R179Q) (human, UniProt Q9GZV9 25-251)
# T1 construct: also called rhFGF23(R179Q); hFGF23(R179Q)
# T1 sequence (looked up): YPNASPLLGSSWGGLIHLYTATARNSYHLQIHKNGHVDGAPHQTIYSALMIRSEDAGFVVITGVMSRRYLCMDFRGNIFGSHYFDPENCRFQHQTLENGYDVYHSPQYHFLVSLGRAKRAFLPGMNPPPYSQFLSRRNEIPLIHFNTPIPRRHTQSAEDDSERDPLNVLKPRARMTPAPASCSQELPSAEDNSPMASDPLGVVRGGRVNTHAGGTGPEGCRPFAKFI
# experimental.protocol: SPR, antibody captured on hIgG chip, rhFGF23(R179Q) analyte
observable: SA (surface activity) (%)

[[record]]
binder = "UGX145 (antibody, human IgG1, kappa, V domains shown, also called UGX042; LC:Y94E) VH: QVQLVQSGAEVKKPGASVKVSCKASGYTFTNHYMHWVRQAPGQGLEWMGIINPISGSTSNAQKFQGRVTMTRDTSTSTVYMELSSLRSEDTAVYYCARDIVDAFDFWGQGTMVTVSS VL: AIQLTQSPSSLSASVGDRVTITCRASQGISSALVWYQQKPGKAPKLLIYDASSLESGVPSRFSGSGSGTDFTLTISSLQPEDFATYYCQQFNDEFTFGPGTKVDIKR"
value_units = "%"
observed = 87.4

[[record]]
binder = "UGX144 (antibody, human IgG1, kappa, V domains shown, also called LC:Y94D; Y94D) VH: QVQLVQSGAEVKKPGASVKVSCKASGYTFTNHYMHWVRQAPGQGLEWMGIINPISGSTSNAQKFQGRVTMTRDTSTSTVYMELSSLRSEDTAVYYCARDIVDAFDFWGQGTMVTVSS VL: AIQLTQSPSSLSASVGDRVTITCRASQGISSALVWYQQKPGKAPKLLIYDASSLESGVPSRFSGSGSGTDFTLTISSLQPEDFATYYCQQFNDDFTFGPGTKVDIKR"
value_units = "%"
observed = 89.5

[[record]]
binder = "UGX206 (antibody, human IgG1, kappa, V domains shown, also called HC:S59E, LC:Y94E; S59E/Y94E) VH: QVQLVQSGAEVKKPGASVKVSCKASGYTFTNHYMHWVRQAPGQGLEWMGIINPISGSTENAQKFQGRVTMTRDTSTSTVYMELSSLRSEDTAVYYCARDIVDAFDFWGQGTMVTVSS VL: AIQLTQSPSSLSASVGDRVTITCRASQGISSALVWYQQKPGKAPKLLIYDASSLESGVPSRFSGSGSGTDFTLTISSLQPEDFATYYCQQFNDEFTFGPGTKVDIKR"
value_units = "%"
observed = 108

